B1: TPR t1 (parent)
chain: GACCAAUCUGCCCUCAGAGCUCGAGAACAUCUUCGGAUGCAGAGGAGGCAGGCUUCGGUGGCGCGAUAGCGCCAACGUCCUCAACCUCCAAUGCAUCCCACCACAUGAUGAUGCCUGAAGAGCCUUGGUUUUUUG

Variants of: B1
ASSAY_PROTOCOL: polymerase ribozyme fitness, log enrichment relative to wild type (log ratio); higher = more active; in vitro selection for triplet polymerase activity
READOUT_LABEL: polymerase ribozyme fitness (log ratio)
No unit in the answer, please; the number alone is enough.

[[record]]
sequence_record = "GACCAAUCUGCCCUCAGAGCUCGAGAUCAUCUUCGGAUGCAGAGGAGGCAGGCUGAGGUGAGGCGAUAGCGCCAACGUCCUCAACCUCCAAUGCAUCCCACCACAUGAUGACGCCUGAAUAGCCUUGAUCUUUUG [A27U U55G C56A G61A C62G U112C G120U G128A U130C]"
readout_label = "polymerase ribozyme fitness (log ratio)"
test_value = -7.21

[[record]]
sequence_record = "GACCAGUCUGCCUUCAGAGCUUGAGAACAUCUUCGGAUGCAGACGAGGCAGGCUUCGGUGGCGCGAUAGCGCCAACGUCCUCAACCUCCAAUGCAUCCCACCACAUGAUGAUGCCUGAAGAGCCUUGGUUUUUUG [A6G C13U C22U G44C]"
readout_label = "polymerase ribozyme fitness (log ratio)"
test_value = -5.6

[[record]]
sequence_record = "GACCAAUCUGCCCUCAGAGCUCGAGAACAUCUUCAGAUGCAGAGGAGGCAGGCUUCGGUGGCGCGAUAGCGGCAACGUCCUCAACCUCCAAUGCAUCCCACCACAUGAUGACGCCUGAAGAGCCUUGGUUUUUUG [G35A C72G U112C]"
readout_label = "polymerase ribozyme fitness (log ratio)"
test_value = -2.35

[[record]]
sequence_record = "GACCAAUCUGCCCUCAGAGCUCGAGAACAUCUUCGGAUGCAGAGGAGUCAGGCGUCGGUGGCGCGAUAGCGCCAACGUCCUCAACCUCCAAUGCAUCCCACCACAUGAUGAUGCCUGAAGAGCCUUGGAUUUUUG [G48U U54G U129A]"
readout_label = "polymerase ribozyme fitness (log ratio)"
test_value = -1.88

[[record]]
sequence_record = "GACCAAUCUGCCCUCAGAGCUCGAGAACAUCUUCGGAUGCAGAGGAGGCAGACUACGGUGGCGCGAUAGCGCCAACGUCCUCAACCUCCAAUGCAUCCCACCACAUGAUGAUGCCUGAACAGAUUUGGUUUUUUA [G52A U55A G120C C123A C124U G135A]"
readout_label = "polymerase ribozyme fitness (log ratio)"
test_value = 1.07


Form field polymerase ribozyme fitness (log ratio), entry GACCAAUCUGCCCUCAGAGCUCGAGAACAUCUUCGGAUGCAGAGGAGGCAGGCUGCGGUGGCGCGAUAGCGCCAACGUCCUCAACCUCCAAUGCAUCCCACCACAUGAUGAUGCCUGAAGAGCCUUGGUUUAUUG [U55G U132A] : -0.283

Form field polymerase ribozyme fitness (log ratio), entry GACCAAUCUGCGCUAAGAGCUUGAGGACAUCUUCGGAUGCAGAGGAGGCAGGCUUCGGUGGCGCGAUAGCGCCAACGUCCUCAACCUCCAAUGCAUCCCACCACAUGAUGAUGCCCGUAGAGCGUUGGUUUUUUG [C12G C15A C22U A26G U116C A118U C124G] : -2.97

Form field polymerase ribozyme fitness (log ratio), entry GACCAAUCUGCCCUCAGAGCUCGAGAACAUCUUCGGAUGCAGAGGAGGCAGGCUUCGGUGGCGCGAUAGCGCCAACGUCCUCAACCUCCAAUGCAUCCCACCACAUGAUGAUGACUGAAGAACCUUGGUUUUUUG [C114A G122A] : -2.53

Form field polymerase ribozyme fitness (log ratio), entry GACCAAUCUGCCGUCAGAGCUCGAGAACAUCUUCGGGUGCAGAGGAGGCAGGCUUCGGUGGCGCGAUAGCUCCAACGUCCUCAACCUCCAAUGCAUCCCACGUCAUGAUGAAGCCUUAAGAGCCUUCGUGUUUUG [C13G A37G G71U C102G A103U U112A G117U G127C U130G] : -6.56

Form field polymerase ribozyme fitness (log ratio), entry GACCAAUCUGCCCUCAGAGCUCGAGAACAUCUUCGGAUGCAGAGGAGGCAGGCUUCGGUGCCGCGAUAGCGCCAACGUCCUCAACCUCCAAUGCAUCCCACCACAUGAUGAUGCCUGAAGAGGCUUGGUUUUUUG [G61C C123G] : 0.189

Form field polymerase ribozyme fitness (log ratio), entry GACCAAUGUGCCCUCAGUGCUCGAGAACAUCUUCGGAUGCAGAGGAGGCAGGCUUCGGUGGCGCGAUAGCGCCAACGUCCUCAACCUCCAAUGCAUCUCACCACAUGAUGAUGCCUGAAGAGCCUUGGUUUUUUG [C8G A18U C98U] : -2.18
